# system.tested: GABARAP (purified, for ITC) (human)
# protocol.text: ITC
value.type: Kd

query: Give the reported value of Kd for this record: DGTLIIDLPDSY [LIR(TP[T]) peptide]
result: > 132 µM
